All figures here come from patent US11415579B2.

- target.desc: Cdk2(H71C) (C177A) (Homo sapiens, UniProt P24941, C177A/H71C)
- Construct: poly-histidine; made in house; host or cells: E. coli
- test.description: Kinetic thiol consumption assay with Cdk2 mutant H71C
- Format: binding
- Design: key: rate constant with Cdk2 ÷ rate constant with model thiol (fold)
- measurement.conditions: Cdk2 H71C, additional mutation C177A
quantity.measured: Rate enhancement, Cdk2 H71C
Give the figure only, with no unit attached.

input: Tell me Rate enhancement, Cdk2 H71C reported for C=CC(=O)N(C(=O)C=C)c1c2ccccc2n2c(C)nc3ccccc3c12 [CA-152]
output: 0

input: Tell me Rate enhancement, Cdk2 H71C reported for C=CC(=O)NCCc1c(-c2ccccn2)[nH]c2ccccc12 [EL-1083]
output: 0

input: Tell me Rate enhancement, Cdk2 H71C reported for C=CC(=O)N1CCN(Cc2ccc(Cl)cc2)CC1 [EL-1183]
output: 1.823

input: Tell me Rate enhancement, Cdk2 H71C reported for C=CC(=O)Nc1cccc(C(F)(F)F)c1 [BN-80]
output: 0.1247

input: Tell me Rate enhancement, Cdk2 H71C reported for C=CC(=O)Nc1sc2c(c1C(=O)NC1CC1)CCC2 [CA-155]
output: 1.102

input: Tell me Rate enhancement, Cdk2 H71C reported for C=CC(=O)N1CCc2sccc2C1c1cccs1 (centres unmarked) [CA-056]
output: 1.254

input: Tell me Rate enhancement, Cdk2 H71C reported for C=CC(=O)Nc1cccc(-c2cc3ccccc3[nH]2)c1 [EL-1098]
output: 0.2587

input: Tell me Rate enhancement, Cdk2 H71C reported for C=CC(=O)N(Cc1ccco1)Cc1ccco1 [CA-099/153]
output: 0.2907

input: Tell me Rate enhancement, Cdk2 H71C reported for C=CC(=O)N1CCN(c2ccccc2C(N)=O)CC1 [EL-1155]
output: 0.4653

input: Tell me Rate enhancement, Cdk2 H71C reported for C=CC(=O)N1CCCC(C(=O)OCC)C1 (centres unmarked) [EL-1187]
output: 0.4465

input: Tell me Rate enhancement, Cdk2 H71C reported for C=CC(=O)N1CC(CCN2CCCC2=O)c2ccccc21 (centres unmarked) [CA-089]
output: 3.475

* * *

- target.desc: Cdk2(S276C) (C177A) (Homo sapiens, UniProt P24941, C177A/S276C)
- Construct: poly-histidine; made in house; host or cells: E. coli
- test.description: Kinetic thiol consumption assay with Cdk2 mutant S276C
- Assay type: binding
- Design: key: rate constant with Cdk2 ÷ rate constant with model thiol (fold)
- measurement.conditions: Cdk2 S276C, additional mutation C177A
quantity.measured: Rate enhancement, Cdk2 S276C

| compound | quantity.measured | value.measured |
| --- | --- | --- |
| C=CC(=O)NC(C)c1ccc2c(c1)OCO2 (stereo not shown) | Rate enhancement, Cdk2 S276C | 1.226 |
| C=CC(=O)N1CCN(C(=O)OC(C)(C)C)CC1 | Rate enhancement, Cdk2 S276C | 0.3272 |
| C=CC(=O)N1CC(OCc2cccc3ccccc23)C1 | Rate enhancement, Cdk2 S276C | 3.934 |

input: Tell me Rate enhancement, Cdk2 S276C reported for C=CC(=O)NC1(c2noc(C)n2)CCCCCC1
output: 1.07

input: Tell me Rate enhancement, Cdk2 S276C reported for C=CC(=O)Nc1cccc(-c2cc3ccccc3[nH]2)c1
output: 1.017

input: Tell me Rate enhancement, Cdk2 S276C reported for C=CC(=O)Nc1cccc2ncccc12
output: 0.9852

input: Tell me Rate enhancement, Cdk2 S276C reported for C=CC(=O)NC1(C2CC2)CC1
output: 0.5464

input: Tell me Rate enhancement, Cdk2 S276C reported for C=CC(=O)Nc1cccc(C(=O)c2ccccc2)c1
output: 2.167

input: Tell me Rate enhancement, Cdk2 S276C reported for C=CC(=O)NCc1ccc(OC)cc1
output: 0.393

* * *

- target.desc: Cdk2(C177A, F80C) (Homo sapiens, UniProt P24941, C177A/F80C)
- Construct: poly-histidine; made in house; host or cells: E. coli
- test.description: Kinetic thiol consumption assay with Cdk2 mutant F80C, incl. kobs versus concentration (Kd, k2)
- Format: binding
- Set-up: key: Cdk2 rate constant divided by model-thiol rate constant
- measurement.conditions: Cdk2 F80C, additional mutation C177A
Rate enhancement, Cdk2 F80C vs 0.1: less than gives Condition met; not less than gives Condition not met.

Examples with answers:
| molecule | class |
| --- | --- |
| C=CC(=O)N1CCCCCC1c1cccs1 (centres unmarked) | Condition not met |
| C=CC(=O)Nc1cccc(Nc2ncnc3cc(OC)c(OC)cc23)c1 | Condition not met |
| C=CC(=O)NC1CCN(Cc2ccccc2)CC1 | Condition not met |
| C=CC(=O)N1C(=O)CC(c2ccccc2)N(C(=O)C=C)c2ccccc21 (centres unmarked) | Condition not met |
| C=CC(=O)N1C(C(=O)c2ccccc2)C1c1ccccc1 (centres unmarked) | Condition not met |

input: Is the reported Rate enhancement, Cdk2 F80C for C=CC(=O)Nc1ccc2c(c1)OC1(CCCC1)O2 strictly below 0.1?
output: Condition not met

input: Is the reported Rate enhancement, Cdk2 F80C for C=CC(=O)N1CCn2cccc2C1c1ccccc1 (centres unmarked) strictly below 0.1?
output: Condition not met

input: Is the reported Rate enhancement, Cdk2 F80C for O=C(c1ccccc1)[C@@H]1O[C@H]1c1ccccc1 strictly below 0.1?
output: Condition met

input: Is the reported Rate enhancement, Cdk2 F80C for C=CC(=O)NC1(c2noc(C3CC3)n2)CCCC1 strictly below 0.1?
output: Condition met

input: Is the reported Rate enhancement, Cdk2 F80C for C=CC(=O)NCCc1c(-c2ccccn2)[nH]c2ccc(F)cc12 strictly below 0.1?
output: Condition met

* * *

- target.desc: Cdk2(H71C) (C177A) (Homo sapiens, UniProt P24941, C177A/H71C)
- Construct: poly-histidine; made in house; host or cells: E. coli
- test.description: Kinetic thiol consumption assay with Cdk2 mutant H71C
- Format: binding
- Set-up: key: rate constant with Cdk2 ÷ rate constant with model thiol (fold)
- measurement.conditions: Cdk2 H71C, additional mutation C177A
Consider the following compounds and their measured Rate enhancement, Cdk2 H71C readings.
Give the figure only, with no unit attached.

| compound | Rate enhancement, Cdk2 H71C |
| --- | --- |
| C=CC(=O)N1CCCC(N2C(=O)CC3(CCCC3)C2=O)C1 (centres unmarked) [CA-236] | 0.1903 |
| C=CC(=O)N1CCN(C(=O)OC(C)(C)C)c2ccccc21 [EL-1157] | 0.3892 |
| C=CC(=O)N1C(C(=O)c2ccccc2)C1c1ccccc1 (centres unmarked) [CA-53] | 1.165 |
| C=CC(=O)N1CCCC1c1ccc(OC)cc1 (centres unmarked) [EL-1062] | 0 |
| C=CC(=O)N1CCN(c2cccc3cccnc23)CC1 [EL-1156] | 0.3885 |

input: Consider the compound C=CC(=O)N(CC(=O)NC1CC1)C1CC1 [CA-031] tested on Cdk2(H71C) (C177A) (Homo sapiens, UniProt P24941, C177A/H71C); state its Rate enhancement, Cdk2 H71C.
output: 0

input: Consider the compound C=CC(=O)N(Cc1ccco1)C12CC3CC(CC(C3)C1)C2 [CA-157] tested on Cdk2(H71C) (C177A) (Homo sapiens, UniProt P24941, C177A/H71C); state its Rate enhancement, Cdk2 H71C.
output: 1.058

input: Consider the compound C=CC(=O)Nc1[nH]nc(C2CC2)c1-c1ccc2c(c1)OCO2 [CA-041] tested on Cdk2(H71C) (C177A) (Homo sapiens, UniProt P24941, C177A/H71C); state its Rate enhancement, Cdk2 H71C.
output: 0.007207

input: Consider the compound O=C(c1ccccc1)[C@@H]1O[C@H]1c1ccccc1 [EN006] tested on Cdk2(H71C) (C177A) (Homo sapiens, UniProt P24941, C177A/H71C); state its Rate enhancement, Cdk2 H71C.
output: 12.95

input: Consider the compound C=CC(=O)N1CC(Cc2ccccc2)C1 [CA-072] tested on Cdk2(H71C) (C177A) (Homo sapiens, UniProt P24941, C177A/H71C); state its Rate enhancement, Cdk2 H71C.
output: 16.46

input: Consider the compound C=CC(=O)N(C)C1CC(OCC)C12CCC2 (centres unmarked) [CA-048] tested on Cdk2(H71C) (C177A) (Homo sapiens, UniProt P24941, C177A/H71C); state its Rate enhancement, Cdk2 H71C.
output: 0.2331

* * *

- target.desc: Cdk2(C177A, F80C) (Homo sapiens, UniProt P24941, C177A/F80C)
- Construct: poly-histidine; made in house; host or cells: E. coli
- test.description: Kinetic thiol consumption assay with Cdk2 mutant F80C, incl. kobs versus concentration (Kd, k2)
- Assay type: binding
- Set-up: key: Cdk2 rate constant divided by model-thiol rate constant
- measurement.conditions: Cdk2 F80C, additional mutation C177A
quantity.measured: Rate enhancement, Cdk2 F80C
Give the figure only, with no unit attached.

| compound | value.measured |
| --- | --- |
| C=CC(=O)N1CCc2sccc2C1c1cccs1 (stereo not drawn) | 4.984 |
| C=CC(=O)N1CCn2c(C(=O)NC3CC3)ccc2C1C (stereo not drawn) | 0.3102 |
| C=CC(=O)N1CC2(CCC2)c2c(F)cccc21 | 2.57 |
| C=CC(=O)N1CCC2(CCCN(Cc3ccccc3)C2)C1 (stereo not drawn) | 0.09517 |
| C=CC(=O)N1CCN(c2cccc3cccnc23)CC1 | 1.015 |

input: Tell me Rate enhancement, Cdk2 F80C reported for C=CC(=O)N1CCN(C(=O)OC(C)(C)C)CC1
output: 0.1236

input: Tell me Rate enhancement, Cdk2 F80C reported for C=CC(=O)NC1C2C3CCC(C3)C12 (stereo not drawn)
output: 0.1887

input: Tell me Rate enhancement, Cdk2 F80C reported for C=CC(=O)N1CC2CCCCCCC21 (stereo not drawn)
output: 0.5929

input: Tell me Rate enhancement, Cdk2 F80C reported for CN(C#N)Cc1ccccc1
output: 3.246

input: Tell me Rate enhancement, Cdk2 F80C reported for C=CC(=O)N1CCC(c2nnc3n2CCC3)CC1
output: 0

input: Tell me Rate enhancement, Cdk2 F80C reported for C=CC(=O)N1CCCN(Cc2noc(C3CC3)n2)CC1
output: 0.1408

input: Tell me Rate enhancement, Cdk2 F80C reported for C=CC(=O)N(C(=O)C=C)c1c2ccccc2n2c(C)nc3ccccc3c12
output: 0.1587

input: Tell me Rate enhancement, Cdk2 F80C reported for C=CC(=O)Nc1cccc(C(F)(F)F)c1 [EL-1007]
output: 1.215

input: Tell me Rate enhancement, Cdk2 F80C reported for C=CC(=O)NCc1ccc(-c2csnn2)cc1
output: 2.336

input: Tell me Rate enhancement, Cdk2 F80C reported for O=C(CCl)N1CCSc2ccccc21
output: 0.01666

input: Tell me Rate enhancement, Cdk2 F80C reported for C=CC(=O)Nc1cccc(C(=O)c2ccccc2)c1
output: 11.9

input: Tell me Rate enhancement, Cdk2 F80C reported for C=CC(=O)N1CCC(NC(=O)C2CCC2)C1 (stereo not drawn)
output: 0.1205

input: Tell me Rate enhancement, Cdk2 F80C reported for C=CC(=O)N1CC2CN(Cc3ccccc3)CC2C1 (stereo not drawn)
output: 0.1388
